target: c-FMS kinase in THP-1 cells (Homo sapiens (Human), UniProt P07333); assay: Phospho-FMS ELISA assay in THP-1 cells; format: cell-based; settings: 4 h compound, M-CSF stimulation 5 min; read-out: pFMS inhibition in THP-1 cells
Sequence (P07333 20-972): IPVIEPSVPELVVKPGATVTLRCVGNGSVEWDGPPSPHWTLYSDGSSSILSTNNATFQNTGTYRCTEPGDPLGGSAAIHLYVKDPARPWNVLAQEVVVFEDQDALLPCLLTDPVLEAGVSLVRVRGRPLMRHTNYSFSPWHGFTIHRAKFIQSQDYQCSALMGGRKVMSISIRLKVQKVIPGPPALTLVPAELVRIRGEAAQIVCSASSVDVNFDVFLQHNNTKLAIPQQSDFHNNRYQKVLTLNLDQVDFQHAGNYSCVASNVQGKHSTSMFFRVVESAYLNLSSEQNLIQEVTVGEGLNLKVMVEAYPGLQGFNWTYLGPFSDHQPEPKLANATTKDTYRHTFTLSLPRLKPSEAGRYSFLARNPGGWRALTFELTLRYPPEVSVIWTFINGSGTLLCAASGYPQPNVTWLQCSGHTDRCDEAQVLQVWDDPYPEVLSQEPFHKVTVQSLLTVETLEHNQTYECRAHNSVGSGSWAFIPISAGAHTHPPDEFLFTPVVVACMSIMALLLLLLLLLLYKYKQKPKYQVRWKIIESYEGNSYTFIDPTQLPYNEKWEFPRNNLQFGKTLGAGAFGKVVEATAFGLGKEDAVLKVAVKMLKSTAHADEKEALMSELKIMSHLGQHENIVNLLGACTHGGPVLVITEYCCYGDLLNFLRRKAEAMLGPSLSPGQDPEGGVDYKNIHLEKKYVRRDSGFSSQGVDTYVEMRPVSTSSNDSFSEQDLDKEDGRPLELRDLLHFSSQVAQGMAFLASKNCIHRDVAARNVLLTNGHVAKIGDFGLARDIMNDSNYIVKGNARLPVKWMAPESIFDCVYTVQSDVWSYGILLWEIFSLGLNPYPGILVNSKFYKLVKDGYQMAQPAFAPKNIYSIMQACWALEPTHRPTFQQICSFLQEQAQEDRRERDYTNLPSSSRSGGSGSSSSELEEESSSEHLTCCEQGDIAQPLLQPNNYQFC
pIC50: −log10 of the molar value.
ASSAY_READOUT: pIC50

Some solved entries appear below for comparison.
>>> assay_result("CC(C)N1CCN(C(=O)Nc2ccc(Oc3ccnc(-c4cnn(C)c4)c3)cn2)C1=O")
"> 8.00"
>>> assay_result("CN(C)C(=O)Nc1cc(Oc2ccc(NC(=O)N3CCN(C4CCOCC4)C3=O)nc2)ccn1")
"7.00 to 8.00"
>>> assay_result("Cn1cc(-c2cc(Oc3ccc(NC(=O)N4CCN(C5CCOC5)C4=O)nc3)ccn2)cn1 (stereo in doubt)")
"7.00 to 8.00"

(Q) Please give the documented pIC50 of Cc1nc(NC(=O)N2CCN(C(C)C)C2=O)ccc1Oc1ccnc(-c2cnn(C)c2)c1
(A) > 8.00

---

target: unphosphorylated c-KIT kinase (uKIT, Seq. ID no. 2) (Homo sapiens (Human), UniProt P10721); assay: uKit kinase assay (coupled pyruvate kinase/lactate dehydrogenase); conditions: enzymatic assay, ATP 2000 μM
Sequence (P10721 other isoform, or with tags, fused parts or gaps): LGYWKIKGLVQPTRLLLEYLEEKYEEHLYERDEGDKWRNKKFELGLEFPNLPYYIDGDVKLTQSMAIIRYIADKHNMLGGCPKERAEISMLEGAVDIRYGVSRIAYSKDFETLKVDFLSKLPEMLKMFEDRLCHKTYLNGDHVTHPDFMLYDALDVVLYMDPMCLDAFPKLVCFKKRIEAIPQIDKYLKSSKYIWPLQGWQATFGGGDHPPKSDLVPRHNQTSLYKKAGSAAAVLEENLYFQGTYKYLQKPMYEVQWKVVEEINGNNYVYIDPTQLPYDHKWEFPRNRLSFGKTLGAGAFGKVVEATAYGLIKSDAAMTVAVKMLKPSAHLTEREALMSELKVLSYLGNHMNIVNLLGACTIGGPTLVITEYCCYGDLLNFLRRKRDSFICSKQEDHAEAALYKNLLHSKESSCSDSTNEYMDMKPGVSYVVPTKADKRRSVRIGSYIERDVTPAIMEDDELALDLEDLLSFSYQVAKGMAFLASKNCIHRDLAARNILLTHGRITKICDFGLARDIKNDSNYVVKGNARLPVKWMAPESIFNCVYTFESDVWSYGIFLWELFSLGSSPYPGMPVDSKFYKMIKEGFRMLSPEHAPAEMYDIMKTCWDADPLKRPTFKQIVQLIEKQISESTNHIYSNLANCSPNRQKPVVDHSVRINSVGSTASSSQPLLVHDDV
ASSAY_READOUT: IC50

# count of solved cases: 2
>>> assay_result("CCN1CCN(C(=O)Nc2ccc(Oc3ccnc(-c4cn(C)cn4)c3)cn2)C1=O")
"< 10 nM"
>>> assay_result("Cc1ncc(-c2cc(Oc3ccc(NC(=O)N4CCN(C5CCOCC5)C4=O)nc3C)ccn2)s1")
"100 to 1000 nM"

(Q) Output measured IC50 for this item: Cc1nc(NC(=O)N2CCN(C3CCC(F)(F)CC3)C2=O)ccc1Oc1ccnc(-c2cnn(C)c2)c1
(A) 10 to 100 nM

(Q) Please list IC50 recorded for the compound Cc1nc(NC(=O)N2CCN(C3CC3)C2=O)ccc1Oc1ccnc(-c2cnn(C)c2)c1
(A) 100 to 1000 nM

---

molecular target: unphosphorylated c-FMS kinase (uFMS, Seq. ID no. 1) (Homo sapiens (Human), UniProt P07333); test: uFMS kinase assay (ADP production coupled to pyruvate kinase/lactate dehydrogenase); format: biochemical; conditions: enzymatic assay, ATP 500 μM; read-out: uFMS
Sequence (P07333 538-972): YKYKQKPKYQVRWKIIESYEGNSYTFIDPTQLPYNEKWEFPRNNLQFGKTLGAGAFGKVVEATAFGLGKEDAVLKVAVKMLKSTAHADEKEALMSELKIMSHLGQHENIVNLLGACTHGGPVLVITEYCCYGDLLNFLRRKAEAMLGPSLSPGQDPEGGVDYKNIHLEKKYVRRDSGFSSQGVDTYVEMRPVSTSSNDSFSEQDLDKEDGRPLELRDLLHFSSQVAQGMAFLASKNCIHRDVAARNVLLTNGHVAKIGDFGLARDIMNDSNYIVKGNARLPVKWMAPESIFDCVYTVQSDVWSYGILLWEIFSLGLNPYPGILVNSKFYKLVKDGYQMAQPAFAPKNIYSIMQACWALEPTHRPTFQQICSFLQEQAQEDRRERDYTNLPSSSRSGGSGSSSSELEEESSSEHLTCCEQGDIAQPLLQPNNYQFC
ASSAY_READOUT: IC50

>>> assay_result("COCCCN1CCN(C(=O)Nc2cc(Cl)c(Oc3ccnc(-c4cnn(C)c4)c3)cc2F)C1=O")
"10 to 100 nM"
>>> assay_result("CCc1nc(NC(=O)N2CCN(C3CCOCC3)C2=O)ccc1Oc1ccnc(-c2cnn(C)c2)c1")
"10 to 100 nM"
>>> assay_result("Cc1ncc(-c2cc(Oc3ccc(NC(=O)N4CCN(C5CCOCC5)C4=O)nc3C)ccn2)s1")
"10 to 100 nM"

(Q) Specify reported IC50 for the molecule shown: Cn1cc(-c2cc(Oc3ccc(NC(=O)N4CCN([C@@H]5CCOC5)C4=O)nc3)ccn2)cn1
(A) < 10 nM

(Q) Note IC50 for the molecule shown: Cc1cn(-c2cc(Oc3ccc(NC(=O)N4CCN(C5CCOCC5)C4=O)nc3)ccn2)cn1
(A) 10 to 100 nM

(Q) Please look at this molecule and report its IC50: Cn1cc(-c2cc(Oc3ccc(NC(=O)N4CCN(CCOC(F)(F)F)C4=O)nc3)ccn2)cn1
(A) 10 to 100 nM

(Q) Provide one value: measured IC50 of Cn1cc(-c2cc(Oc3ccc(NC(=O)N4CCN(C5CCOCC5)C4=O)cc3F)ccn2)cn1
(A) 10 to 100 nM

(Q) Retrieve IC50 measured for COCCCN1CCN(C(=O)Nc2ccc(Oc3ccnc(-c4cnn(C)c4)c3)cn2)C1=O and print it.
(A) 10 to 100 nM

(Q) Note down IC50 recorded for COCCN1CCN(C(=O)Nc2ccc(Oc3ccnc(-c4cnn(C)c4)c3)cn2)C1=O
(A) 10 to 100 nM

(Q) Return IC50 (reported value) for this molecule: Cc1cc(NC(=O)N2CCN(C3CC3)C2=O)nc(C)c1Oc1ccnc(-c2cnn(C)c2)c1
(A) < 10 nM

(Q) Dear colleague, please send me the reported IC50 for Cc1cc(NC(=O)N2CCN(C3CCCC3)C2=O)nc(C)c1Oc1ccnc(-c2cnn(C)c2)c1 when you can.
(A) < 10 nM

(Q) Supply recorded IC50 for CC(C)N1CCN(C(=O)Nc2ccc(Oc3ccnc(-c4cnn(C)c4)c3)cn2)C1=O here.
(A) < 10 nM

(Q) Tell me measured IC50 for CCc1nc(NC(=O)N2CCN(CC(F)(F)F)C2=O)ccc1Oc1ccnc(-c2cnn(C)c2)c1 please.
(A) 10 to 100 nM

(Q) Give reported IC50 value for COCCN1CCN(C(=O)Nc2ccc(Oc3ccnc(-c4ccc(C5CCN(C)CC5)cc4)c3)c(C)n2)C1=O
(A) < 10 nM

(Q) State, in one line, measured IC50 of Cc1cc(-c2cc(Oc3ccc(NC(=O)N4CCN(C5CCOCC5)C4=O)nc3C)ccn2)on1
(A) 10 to 100 nM

(Q) Please list IC50 recorded for the molecule CC(C)N1CCN(C(=O)Nc2ncc(Oc3ccnc(-c4cnn(C)c4)c3)cn2)C1=O
(A) 10 to 100 nM

---

test system: osteoclast precursors; assay: Osteoclast tartrate-resistant acid phosphatase assay; type: cell-based; conditions: Osteoclast, 7-14 days, RANKL and M-CSF
pIC50: −log10 of the molar value.
Each record here notes measured pIC50.

Solved cases below.
>>> assay_result("COCCN1CCN(C(=O)Nc2cc(Cl)c(Oc3ccnc(-c4cnn(C)c4)c3)cc2F)C1=O [Example 100]")
"7.00 to 8.00"
>>> assay_result("COC[C@H](C)N1CCN(C(=O)Nc2ccc(Oc3ccnc(-c4cnn(C)c4)c3)c(C)n2)C1=O [Example 38]")
"> 8.00"

(Q) Tell us which pIC50 value is on record for Cn1cc(-c2cc(Oc3cc(F)c(NC(=O)N4CCN(C5CCCCC5)C4=O)cc3Cl)ccn2)cn1 [Example 107]
(A) 7.00 to 8.00

(Q) Identify measured pIC50 corresponding to CC(=O)Nc1cc(Oc2ccc(NC(=O)N3CCN(C4CCOCC4)C3=O)nc2C)ccn1 [Example 121]
(A) 6.00 to 7.00

(Q) Input COC[C@H](C)N1CCN(C(=O)Nc2cc(Cl)c(Oc3ccnc(-c4cnn(C)c4)c3)cc2F)C1=O [Example 105] , output reported pIC50.
(A) 7.00 to 8.00

(Q) Give a short answer stating reported pIC50 for CCc1nc(NC(=O)N2CCN(C3CCCC3)C2=O)ccc1Oc1ccnc(-c2cnn(C)c2)c1 [Example 57] .
(A) 7.00 to 8.00

---

target: unphosphorylated c-FMS kinase (uFMS, Seq. ID no. 1) (Homo sapiens (Human)); test: uFMS kinase assay (ADP production coupled to pyruvate kinase/lactate dehydrogenase); type: biochemical; details: enzymatic assay, ATP 500 μM; read-out: uFMS
pIC50: −log10 of the molar value.
ASSAY_READOUT: pIC50

Before answering, review these 5 worked examples.
>>> assay_result("COC[C@@H](C)N1CCN(C(=O)Nc2ccc(Oc3ccnc(-c4cnn(C)c4)c3)cn2)C1=O [Example 59]")
"> 8.00"
>>> assay_result("CCc1nc(NC(=O)N2CCN(C3CC3)C2=O)ccc1Oc1ccnc(-c2cnn(C)c2)c1 [Example 58]")
"7.00 to 8.00"
>>> assay_result("CCN1CCN(C(=O)Nc2ccc(Oc3ccnc(-c4cnn(C)c4)c3)c(C)n2)C1=O [Example 42]")
"> 8.00"
>>> assay_result("Cc1nc(NC(=O)N2CCN(C3CC3)C2=O)ccc1Oc1ccnc(-c2cnn(C)c2)c1 [Example 47]")
"> 8.00"
>>> assay_result("Cn1cc(-c2cc(Oc3ccc(NC(=O)N4CCN(C5CC5)C4=O)nc3)ccn2)cn1 [Example 46]")
"> 8.00"

(Q) Determine from records and report pIC50 for Cn1cc(-c2cc(Oc3ccc(NC(=O)N4CCN(CC#N)C4=O)nc3)ccn2)cn1 [Example 55]
(A) 6.00 to 7.00

(Q) Provide one value: measured pIC50 of CCn1cc(-c2cc(Oc3ccc(NC(=O)N4CCN(C5CCOCC5)C4=O)nc3)ccn2)cn1 [Example 4]
(A) 7.00 to 8.00

---

Catalogue of pIC50 values
biological target: unphosphorylated c-KIT kinase (uKIT, Seq. ID no. 2) (Homo sapiens (Human)); assay: uKit kinase assay (coupled pyruvate kinase/lactate dehydrogenase); details: enzymatic assay, ATP 2000 μM
pIC50: −log10 of the molar value.

Previously resolved entries follow.
>>> assay_result("Cc1ncc(-c2cc(Oc3ccc(NC(=O)N4CCN(CC(F)(F)F)C4=O)nc3C)ccn2)s1 [Example 74]")
"6.00 to 7.00"
>>> assay_result("COCCN1CCN(C(=O)Nc2ccc(Oc3ccnc(-c4cnc(C)s4)c3)c(C)n2)C1=O [Example 67]")
"< 6.00"
>>> assay_result("CCN1CCN(C(=O)Nc2cc(C)c(Oc3ccnc(-n4cnc(C)c4)c3)cn2)C1=O [Example 88]")
"6.00 to 7.00"
>>> assay_result("COC[C@H](C)N1CCN(C(=O)Nc2ccc(Oc3ccnc(-c4cnn(C)c4)c3)c(C)n2)C1=O [Example 38]")
"> 8.00"
>>> assay_result("Cc1cc(-c2cc(Oc3ccc(NC(=O)N4CCN(C5CCOCC5)C4=O)nc3)ccn2)on1 [Example 7]")
"7.00 to 8.00"
>>> assay_result("CCc1nc(NC(=O)N2CCN(C3CCOCC3)C2=O)ccc1Oc1ccnc(-c2ccc(C)nc2)c1 [Example 63]")
"< 6.00"

(Q) Output pIC50 of CCN1CCN(C(=O)Nc2ccc(Oc3ccnc(-n4cnc(C)c4)c3)cn2)C1=O [Example 79]
(A) 6.00 to 7.00

(Q) Annotate the molecule CCN1CCN(C(=O)Nc2ccc(Oc3ccnc(-c4cnc(C)s4)c3)c(C)n2)C1=O [Example 70] with its measured pIC50.
(A) 6.00 to 7.00

Sourced from patent US9133183B2
